Origin of measurements: patent US12084441B2

# experiment.notes: physchem
# run.conditions: 37 °C, water, thermodynamic from solid, Solubility (mg/mL)

molecule	solubility at 4 h, mg/mL
CC(=O)O.CS(=O)(=O)N1CCC(c2ccc(-c3cc4nccnc4c(NC[C@@H]4CNCCO4)n3)cc2)CC1 [Form A-I]	26.2

====

# experiment.notes: Solubility test of salt of Formula A (acetate, Form A-I) and its free base in different solvents
# run.conditions: purified water, water, thermodynamic from solid

molecule	solubility at 4 h, µg/mL
CS(=O)(=O)N1CCC(c2ccc(-c3cc4nccnc4c(NC[C@@H]4CNCCO4)n3)cc2)CC1 [Free base of Formula A]	2.4

====

Quick reference: solubility at 5 min of the listed items.
# experiment.notes: Rough solubility test of salt of Formula A in water
# Assay type: physicochemical
# run.conditions: thermodynamic from solid; Purified Water, 19° C.
# Protocol: After each addition of water, the test tube was shaken for 5 minutes until the solid was dissolved completely. Then the rough solubility of the compound was calculated according to the weight of the compound weighed and the total amount of water added.

compound	solubility at 5 min, µg/mL
CS(=O)(=O)N1CCC(c2ccc(-c3cc4nccnc4c(NC[C@@H]4CNCCO4)n3)cc2)CC1.O=C(O)CC(O)C(=O)O [Form C-I]	480
CC(=O)O.CS(=O)(=O)N1CCC(c2ccc(-c3cc4nccnc4c(NC[C@@H]4CNCCO4)n3)cc2)CC1 [Form A-I]	14600
